folding stability dG: recorded values
B1: EEHEE_rd4_0469 (parent)
chain: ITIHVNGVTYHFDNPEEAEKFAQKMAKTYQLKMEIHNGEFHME

variants of: B1; assay: folding stability dG (cDNA display proteolysis); higher = more stable; conditions: PBS, room temperature
# value in kcal/mol; strip the unit string

Requested read-out: folding stability dG. Entry: N14P
0.129

Looking for the measured folding stability dG of H36L , can you help?
1.2

Requested read-out: folding stability dG. Entry: T2V
1.13

Please report the recorded folding stability dG for K27Q .
1.24

folding stability dG for K24D ?
1.09

Please report the recorded folding stability dG for N6H .
1.35

Can you share its folding stability dG? I mean this variant: K24R
1.31

// query folding stability dG value for entry T2S
1.08

Value lookup for folding stability dG; key = F21V
0.092

Could you tell me which folding stability dG is on file for H11V ?
1.07

Next:
Entry V5Y : reported folding stability dG = ?
0.92

Please look up its folding stability dG: E17D
1.06

For N6G , what is its reported folding stability dG?
1.14

folding stability dG for N14S ?
1.07

Which measured folding stability dG value corresponds to F40A ?
0.744

Suppose we examine the variant I3G ; what folding stability dG value has been reported?
0.58

What folding stability dG value was documented for this variant, H11E ?
0.843

Request the reported folding stability dG associated with K27V
1.22
